System: LOX IMVI melanoma
experimental-protocol: NCI tumour cell line growth inhibition, 48 h
property-label: TGI

compound: O=C(O)CN1CCN2CCCCCCCCN(CC1)CCN(CC(=O)O)CC2
property-label: TGI
endpoint-result: > 100 µM

Each compound below has a recorded value; state its TGI.
1. CCCC(=O)Nc1cc(/C=C/C(=O)N2CC(CCl)c3ccc([N+](=O)[O-])cc32)n(C)c1 (stereo not given)
2. COc1nc2ccc(Cl)c(C(O)c3ccccc3)c2nc1OC (stereo not given)
3. C=C(C)[C@@H]1C/C=C(/COC(C)=O)CC[C@H]2O[C@@]2(C)CC/C=C(\C)CC1
4. Cn1nc(-c2ccccc2)c2c(/C=C/c3ccc(F)cc3)onc2c1=O
5. Oc1cccc2ccc(SSc3ccc4cccc(O)c4n3)nc12
6. CSc1nc2c(nc(N)n2C2OC(CO)C(O)C(O)C2O)c(=O)[nH]1 (stereo not given)
7. COc1cc2c(c(OC)c1OC)-c1ccc(OC)c(=O)cc1C(NC(=O)CCCCCNc1ccc(N=[N+]=[N-])cc1[N+](=O)[O-])CC2 (stereo not given)
8. NC(CCl)=NCC12CC3CC(CC(C3)C1)C2

1: > 100 µM; 2: 36.5 µM; 3: 46.5 µM; 4: > 100 µM; 5: 33.8 µM; 6: > 100 µM; 7: 9.55 µM; 8: 2.67 µM

Each compound below has a recorded value; state its TGI.
1. N#Cc1c(N)c(C(=O)c2ccc3c(c2)OCCO3)n2c1CCCC2
2. C[C@]12CC[C@@H]3c4ccc(O)cc4CC[C@H]3[C@@H]1CC(Cc1ccccc1)(Cc1ccccc1)C2=O

["> 100 µM", "27.2 µM"]
